# assayed.target: RON (Homo sapiens, UniProt Q04912)
# Sequence (Q04912 25-1400, species assumed): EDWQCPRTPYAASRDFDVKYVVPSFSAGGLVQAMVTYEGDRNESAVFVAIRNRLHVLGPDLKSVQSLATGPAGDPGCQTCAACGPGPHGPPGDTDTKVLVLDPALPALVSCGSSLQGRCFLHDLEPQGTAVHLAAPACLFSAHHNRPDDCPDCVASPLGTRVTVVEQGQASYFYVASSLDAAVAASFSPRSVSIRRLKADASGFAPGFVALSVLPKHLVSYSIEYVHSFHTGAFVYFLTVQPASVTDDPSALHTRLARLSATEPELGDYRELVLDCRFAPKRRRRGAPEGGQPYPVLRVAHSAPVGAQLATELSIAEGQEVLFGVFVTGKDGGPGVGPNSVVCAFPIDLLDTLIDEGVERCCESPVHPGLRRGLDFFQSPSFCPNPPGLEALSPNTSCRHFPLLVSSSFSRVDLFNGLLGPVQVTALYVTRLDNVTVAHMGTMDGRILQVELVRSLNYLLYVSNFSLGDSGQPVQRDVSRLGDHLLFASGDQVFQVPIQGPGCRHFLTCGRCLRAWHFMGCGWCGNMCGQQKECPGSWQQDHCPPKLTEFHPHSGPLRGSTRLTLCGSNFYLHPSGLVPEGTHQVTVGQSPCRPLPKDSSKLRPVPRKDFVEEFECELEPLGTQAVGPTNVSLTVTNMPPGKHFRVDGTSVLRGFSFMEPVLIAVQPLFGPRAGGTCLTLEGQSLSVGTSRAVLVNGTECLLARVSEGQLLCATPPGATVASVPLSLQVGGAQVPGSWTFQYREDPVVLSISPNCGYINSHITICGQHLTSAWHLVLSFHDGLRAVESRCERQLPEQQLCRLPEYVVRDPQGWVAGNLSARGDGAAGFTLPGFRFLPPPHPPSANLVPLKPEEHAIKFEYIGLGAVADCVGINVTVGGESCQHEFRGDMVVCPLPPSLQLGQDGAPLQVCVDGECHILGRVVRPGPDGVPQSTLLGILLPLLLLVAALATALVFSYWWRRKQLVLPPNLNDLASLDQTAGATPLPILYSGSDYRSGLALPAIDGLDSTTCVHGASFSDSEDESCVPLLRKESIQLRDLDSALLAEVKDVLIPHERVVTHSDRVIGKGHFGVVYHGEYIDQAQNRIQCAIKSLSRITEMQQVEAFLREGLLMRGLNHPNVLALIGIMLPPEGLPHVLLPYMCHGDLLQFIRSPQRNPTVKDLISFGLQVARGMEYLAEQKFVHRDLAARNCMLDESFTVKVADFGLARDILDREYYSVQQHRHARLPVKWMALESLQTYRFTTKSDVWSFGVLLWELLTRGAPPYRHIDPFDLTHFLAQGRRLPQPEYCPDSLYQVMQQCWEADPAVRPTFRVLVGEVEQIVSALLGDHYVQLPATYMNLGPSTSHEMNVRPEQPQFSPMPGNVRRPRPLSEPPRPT
assay.metric: IC50

-- ask Reported IC50 for Nc1ncnc(Oc2ccc(NC(=O)c3cnn(-c4cc(Cl)ccn4)c3C(F)(F)F)cc2F)c1Cl [Example 52] : what is it?
-- reply 500 to 5000 nM

-- ask Now the same for Cc1ccnc(-n2ncc(C(=O)Nc3ccc(Oc4ccnc(N)c4Cl)c(F)c3)c2C(F)(F)F)n1 [Example 23]
-- reply 50 to 500 nM

-- ask Now this one: Nc1nccc(Oc2ccc(NC(=O)c3cnn(-c4cc(F)ccn4)c3C(F)(F)F)cc2F)c1Cl [Example 25]
-- reply < 50 nM

-- ask Nc1nccc(Oc2ccc(NC(=O)c3cnn(-c4ccc(F)cn4)c3C(F)(F)F)cc2F)c1Cl [Example 13] , same question.
-- reply 50 to 500 nM

-- ask Same thing, different molecule: COc1cccnc1-n1ncc(C(=O)Nc2ccc(Oc3ncnc(N)c3Cl)c(F)c2)c1C(F)(F)F [Example 54]
-- reply 50 to 500 nM

-- ask Continue with Cc1ccc(-n2ncc(C(=O)Nc3ccc(Oc4ccnc(N)c4Cl)c(F)c3)c2C(F)(F)F)nc1 [Example 16]
-- reply 50 to 500 nM

-- ask Same question for Nc1ncnc(Oc2ccc(NC(=O)c3cnn(-c4ccncc4)c3C(F)(F)F)cc2F)c1Cl [Example 57] please.
-- reply 500 to 5000 nM

-- ask Entry to check: Nc1nccc(Oc2ccc(NC(=O)c3cnn(-c4ncc(O)cn4)c3C(F)(F)F)cc2F)c1Cl [Example 27]
-- reply 50 to 500 nM
